Origin of the recorded values: PubChem BioAssay (NCI)

- Tested on: IGROV1 ovarian
- Assay: NCI-60 one-dose screen, 48 h (100 = growth as untreated, 0 = no growth, -100 = all killed)
- Test settings: 10 µM unless noted
- Procedure: Growth inhibition of the IGROV1 human tumor cell line is measured as a screen for anti-cancer activity. Cells are grown in 96 well plates and exposed to the test compound for 48 hours. Compounds are tested at a single concentration, which is 10^-5 M for most compounds. The reported endpoint is percent growth (GI% or GIPRCNT), where numbers from 0 - 100% represent growth inhibition, and numbers from -100% - 0 represent cell death. For example, a value of 40 represents 60% growth inhibition. […]
This is part of a sample that, as a whole, favours compounds with a hit. Of some 83,000 tested, about 20% had one in any assay.
Quantity measured: growth (%)
Kindly provide the numeric value in % only, without the unit symbol.

What value of growth has been reported for the following compound? Cc1cc(C)c(S(=O)O)c(C)c1
129

Can you handle Cc1nn(-c2ccccc2)c2nc3nc4c(c(N)c3c(-c3ccc(Cl)cc3)c12)CCC4 next?
84.5

Can you handle C=C1CC[C@@H]2[C@@](C)(CCC[C@]2(C)C(=O)O)[C@@H]1CC[C@H](CO)CCO next?
99

Can you handle O=c1oc2ccccc2cc1-c1csc(N/N=C/c2cc3ccccc3nc2Cl)n1 next?
93.3

Can you handle CC[Si](CC)(CC)OC1[C@@H](O[Si](CC)(CC)CC)[C@@H](CNC(=O)NC)O[C@H]1n1cnc2c(NC(=O)Nc3ccccc3)ncnc21 (some centres undefined) next?
73.6

Can you handle COc1cc(-c2ccc3cc(OC)c(OC)c(OC)c3c2)cc(OC)c1OC next?
68.6

Can you handle COc1ccc2nc(-n3nc(C)cc3C)c(-n3nc(C)cc3C)nc2c1 next?
113

Can you handle O=C(C[Si](CC(=O)c1cccc(C(F)(F)F)c1)CC(=O)c1cccc(C(F)(F)F)c1)c1cccc(C(F)(F)F)c1 next?
48.3

Can you handle CCOC(=O)C(CC(c1ccccc1)N1CCCCC1)[N+](=O)[O-] (centres undefined) next?
76.3
